# experimental.target: HLA-A*02:01 (Homo sapiens, UniProt P04439, D140Y/D185E/D98H/E176V/E277Q/G131W/G231S/I119V/I121R/I166T/I218V/L300P/L318F/N151K/N90K/P208A/P217A/Q86G/Q94H/R138H/R169H/T345S)
# procedure.summary: MHC binding assay (UV-ligand exchange, β2m ELISA, peptide exchange yield)
# condition.info: MHC class I binding score; binding to HLA-A*02:01 ranged by peptide exchange yield (UV-ligand exchange, β2m ELISA)
quantity.measured: Peptide exchange

Sample answers from the record:
- substance: "580 (LLMENAERV; listed as Homo sapiens) [compound 580]"
  Peptide exchange: "“++” (≧20% = ++)"
- substance: "127 (KIGDEPPKV; listed as Homo sapiens) [compound 127]"
  Peptide exchange: "“++” (≧20% = ++)"
- substance: "432 (TLIEESAKV; listed as Homo sapiens) [compound 432]"
  Peptide exchange: "“++” (≧20% = ++)"
- substance: "304 (MTLGQIYYL; listed as Homo sapiens) [compound 304]"
  Peptide exchange: "“+++” (≧50 = +++)"
- substance: "190 (FLSSLTETI; listed as Homo sapiens) [compound 190]"
  Peptide exchange: "“+++” (≧50 = +++)"
- substance: "599 (YLLNDASLISV; listed as Homo sapiens) [compound 599]"
  Peptide exchange: "“+++” (≧50 = +++)"

Record 284 (ILLSQTTGV; listed as Homo sapiens) [compound 284] , field Peptide exchange: “+++” (≧50 = +++)

Record 14 (AAYGGLNEKSFV; listed as Homo sapiens) [compound 14] , field Peptide exchange: “+++” (≧50 = +++)

Record 265 (LLFGGTKTV; listed as Homo sapiens) [compound 265] , field Peptide exchange: “++” (≧20% = ++)

Record 398 (KLLEEDGTIITL; listed as Homo sapiens) [compound 398] , field Peptide exchange: “++” (≧20% = ++)

Record 519 (GLLHLTLLL; listed as Homo sapiens) [compound 519] , field Peptide exchange: “+++” (≧50 = +++)

Record 136 (YLADPSNLFVV; listed as Homo sapiens) [compound 136] , field Peptide exchange: “+++” (≧50 = +++)

Record 378 (ALGYFVPYV; listed as Homo sapiens) [compound 378] , field Peptide exchange: “+++” (≧50 = +++)

Record 269 (RVLEVGALQAV; listed as Homo sapiens) [compound 269] , field Peptide exchange: “++” (≧20% = ++)

Record 316 (ILLERLWYV; listed as Homo sapiens) [compound 316] , field Peptide exchange: “+++” (≧50 = +++)

====

# experimental.target: HLA-A*02:01 (Homo sapiens, UniProt P04439, D140Y/D185E/D98H/E176V/E277Q/G131W/G231S/I119V/I121R/I166T/I218V/L300P/L318F/N151K/N90K/P208A/P217A/Q86G/Q94H/R138H/R169H/T345S)
# procedure.summary: MHC binding assay (UV-ligand exchange, β2m ELISA, peptide exchange yield)
# condition.info: MHC class I binding score; binding to HLA-A*02:01 ranged by peptide exchange yield (UV-ligand exchange, β2m ELISA)
quantity.measured: Peptide exchange

Sample answers from the record:
- substance: "358 (ALDEYTSEL; listed as Homo sapiens) [compound 358]"
  quantity.measured: "Peptide exchange"
  value.reported: "“++++” (≧75% = ++++)"
- substance: "542 (RVWDISTVSSV; listed as Homo sapiens) [compound 542]"
  quantity.measured: "Peptide exchange"
  value.reported: "“+++” (≧50 = +++)"
- substance: "303 (AILPQLFMV; listed as Homo sapiens) [compound 303]"
  quantity.measured: "Peptide exchange"
  value.reported: "“++++” (≧75% = ++++)"
- substance: "40 (TLLVKVFSV; listed as Homo sapiens) [compound 40]"
  quantity.measured: "Peptide exchange"
  value.reported: "“+++” (≧50 = +++)"
- substance: "301 (FLVEDLVDSL; listed as Homo sapiens) [compound 301]"
  quantity.measured: "Peptide exchange"
  value.reported: "“+++” (≧50 = +++)"
- substance: "601 (SAFPFPVTV; listed as Homo sapiens) [compound 601]"
  quantity.measured: "Peptide exchange"
  value.reported: "“+++” (≧50 = +++)"
- substance: "583 (ILANDGVLLAA; listed as Homo sapiens) [compound 583]"
  quantity.measured: "Peptide exchange"
  value.reported: "“+++” (≧50 = +++)"
- substance: "330 (QLALKVEGV; listed as Homo sapiens) [compound 330]"
  quantity.measured: "Peptide exchange"
  value.reported: "“+++” (≧50 = +++)"

Alright, here's another substance for you.
Record 480 (ALLEDSCHYL; listed as Homo sapiens) [compound 480] , field Peptide exchange: “+++” (≧50 = +++)
